Target: T1, recombinant human PD-L1 (amino acids 19-239 of NP_054862.1) with a C-terminal myc-myc-hexahistidine tag (human)
T1 construct: also called hPD-L1-MMH; hPD-L1-MMH Monomer
T1 sequence (chain, as listed by the source limits assumed): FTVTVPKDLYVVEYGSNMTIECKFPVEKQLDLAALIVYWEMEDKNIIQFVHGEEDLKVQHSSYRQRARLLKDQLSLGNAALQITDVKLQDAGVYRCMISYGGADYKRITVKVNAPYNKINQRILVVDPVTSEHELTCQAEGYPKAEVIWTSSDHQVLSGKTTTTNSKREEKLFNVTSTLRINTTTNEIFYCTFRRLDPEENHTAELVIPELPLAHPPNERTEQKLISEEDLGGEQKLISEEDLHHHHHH
Test: SPR (Biacore), mAb captured, 37C
Each entry below carries its recorded Kd.
Recorded Metric: Kd (nM)

- H2aM8314N (antibody, mouse IgG2, V domains shown, also called H2M8314N) VH: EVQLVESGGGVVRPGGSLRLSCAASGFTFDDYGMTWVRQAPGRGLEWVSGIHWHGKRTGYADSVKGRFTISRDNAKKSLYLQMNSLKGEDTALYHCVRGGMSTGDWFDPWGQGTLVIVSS VL: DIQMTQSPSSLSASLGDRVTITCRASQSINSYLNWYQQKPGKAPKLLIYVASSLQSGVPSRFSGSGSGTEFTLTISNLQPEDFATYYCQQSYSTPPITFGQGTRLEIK: 0.14
- H2aM8321N (antibody, mouse IgG2, V domains shown, also called H2M8321N) VH: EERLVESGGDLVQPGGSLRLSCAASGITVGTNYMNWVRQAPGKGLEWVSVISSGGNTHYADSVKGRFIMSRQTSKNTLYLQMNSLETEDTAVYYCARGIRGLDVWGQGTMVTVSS VL: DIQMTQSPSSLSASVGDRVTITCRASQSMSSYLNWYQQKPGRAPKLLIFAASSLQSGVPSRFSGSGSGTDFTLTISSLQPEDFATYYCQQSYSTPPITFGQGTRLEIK: 91.6
